meta.source: ChEMBL document CHEMBL1201862

Test system: SNB-75
EXPERIMENT NOTES: NCI tumour cell line growth inhibition, 48 h
Calls of active or inactive are those of the source. No stated cut-off is given here; in the data, active = GI50 up to about 1.1 µM and inactive = higher.
MEASUREMENT KIND: GI50

COc1cc(Br)cc2nc(-c3cccs3)oc12
> 51.3 µM (inactive)

// next entry
Measured GI50, `Nc1nc(Cl)c(CO)c(NCC2(CO)CCC2)n1` : > 100 µM (inactive)

* * *

System: NCI-H226
EXPERIMENT NOTES: NCI tumour cell line growth inhibition, 48 h
The source made the active and inactive calls. Cut-off read from the data, not from the text of the source: active = GI50 up to about 1.1 µM and inactive = higher.
MEASUREMENT KIND: GI50

Result for `COc1nc(N)c(C(=O)CCl)c(=O)n1C` , tested on NCI-H226, GI50: 4.5 µM (inactive)

Form field, GI50 with NCI-H226, item O=C1N2Cc3c4ccc5c3CN3C(=O)N6Cc7c(ccc(c7CN1C6(c1ccccc1)C23c1ccccc1)OCCOCCNCCOCCO4)OCCOCCNCCOCCO5 (centres undefined) : > 100 µM (inactive)

Form field GI50 for item `Cc1cc2c(cc1Cl)Sc1nnc(C)n1S2(=O)=O` on NCI-H226: 30.2 µM (inactive)

Simply: CC1(C23CC4CC(CC(C4)C2)C3)n2c(=O)n(-c3ccccc3)c(=O)n2C1(C)C12CC3CC(CC(C3)C1)C2 (centres undefined) , NCI-H226, GI50 = > 100 µM (inactive)

Bench note, NCI-H226: entry CCSC12OC3(CCCCCN3C1=O)C1C(=O)N(c3ccccc3)C(=O)C12 (centres undefined) , its GI50 = > 100 µM (inactive)

Record `O=C(O)c1ccc(/C=N\N(CCO)C2=NCCN2)cc1` / NCI-H226, GI50 recorded as > 100 µM (inactive)

The recorded GI50 with NCI-H226 for `CCOC(=O)c1c(N2CCCC2)nsc1Nc1ccc(F)cc1` was 60.4 µM (inactive)

Measured on NCI-H226, COC(=O)C1=C(OC(=O)c2ccccc2)C(C(=O)OC)[C@@]2(O)[C@@H](C(=O)OC)[C@H](C)C[C@@H]1[C@@H]2C(=O)OC (some centres undefined) has a documented GI50 of 45.5 µM (inactive)

Value sought: GI50, system NCI-H226, item `COC(=O)c1sc(C(=O)OC)c2c1C[S+]([O-])C2` . Result: > 100 µM (inactive)
